Where these numbers come from: ChEMBL document CHEMBL4622973

# Target: NAD-dependent protein deacylase sirtuin-6 (Homo sapiens)
# Protocol Summary: Activation of N-terminal his-tagged human SIRT6 expressed in Escherichia coli M15 [pREP4] assessed as increase in deacetylation activity incubated for 2 hrs using Ac-RYQK(Myr)-AMC substrate by FDL assay relative to control
pEC50: −log10 of the molar value.
Measured Parameter: pEC50

>>> obs_value("O=C(NC(c1ccccc1)c1ccccc1)c1cc(-c2cc3ccccc3o2)nc2ccccc12")
5.26

====

# Target: NAD-dependent protein deacylase sirtuin-6 (Homo sapiens, UniProt Q8N6T7)
# Sequence (Q8N6T7 whole entry): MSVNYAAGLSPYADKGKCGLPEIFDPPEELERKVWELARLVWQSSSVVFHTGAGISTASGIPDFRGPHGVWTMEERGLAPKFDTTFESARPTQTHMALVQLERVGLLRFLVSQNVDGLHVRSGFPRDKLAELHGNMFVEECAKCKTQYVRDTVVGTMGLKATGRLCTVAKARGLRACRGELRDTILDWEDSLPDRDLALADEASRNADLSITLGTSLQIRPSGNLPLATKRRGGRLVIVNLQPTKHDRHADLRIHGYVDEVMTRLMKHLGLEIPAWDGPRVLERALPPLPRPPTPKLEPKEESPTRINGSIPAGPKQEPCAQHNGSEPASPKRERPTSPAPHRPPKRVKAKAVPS
# Protocol Summary: Activation of N-terminal his-tagged human SIRT6 expressed in Escherichia coli M15 [pREP4] assessed as increase in peptide demyristoylation incubated for 120 mins using Ac-EALPKK(Myr)-AMC substrate by FDL assay relative to control
Measured Parameter: EC50 (µM)

>>> obs_value("O=C(NC(c1ccccc1)c1ccccc1)c1cc(-c2cc3ccccc3o2)nc2ccccc12")
8.91
